These entries and their values trace back to patent US20210388087A1.

Below, each entry is listed with its recorded fold change of affinity.
biological target: T1, Human CD137 ECD (human); test: SPR, vs parent H183/L072
T1 construct: also called 4-1BB
T1 sequence (chain, as listed by the source limits assumed): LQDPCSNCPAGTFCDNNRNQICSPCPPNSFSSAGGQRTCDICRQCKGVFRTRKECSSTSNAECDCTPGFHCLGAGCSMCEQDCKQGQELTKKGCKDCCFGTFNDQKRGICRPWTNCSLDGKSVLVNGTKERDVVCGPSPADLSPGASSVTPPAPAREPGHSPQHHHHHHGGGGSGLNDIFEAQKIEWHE
Write down the numeric answer in fold and omit the unit.

Worked cases, fold change of affinity given:
{"columns": ["binder", "unit tag", "assay value"],
 "data": [
  ["dBBDu183H P100eQ / dBBDu072L (antibody, name in Kabat numbering, V domains shown, as m1, one VH change) VH: QVQLVESGGGLVQPGRSLRLSCAASGFTFSNAWMHWVRQAPGKGLEWVAQIKDKGNAYAAYYAPSVKGRFTISRDDSKNSIYLQMNSLKTEDTAVYYCHYVHYASASTVLQAFGVDAWGQGTTVTVSS VL: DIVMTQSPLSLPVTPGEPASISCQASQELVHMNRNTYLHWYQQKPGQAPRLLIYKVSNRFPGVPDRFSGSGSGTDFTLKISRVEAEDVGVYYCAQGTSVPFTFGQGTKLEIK", "fold", 0.4],
  ["dBBDu183H G65Q / dBBDu072L (antibody, name in Kabat numbering, V domains shown, as m1, one VH change) VH: QVQLVESGGGLVQPGRSLRLSCAASGFTFSNAWMHWVRQAPGKGLEWVAQIKDKGNAYAAYYAPSVKQRFTISRDDSKNSIYLQMNSLKTEDTAVYYCHYVHYASASTVLPAFGVDAWGQGTTVTVSS VL: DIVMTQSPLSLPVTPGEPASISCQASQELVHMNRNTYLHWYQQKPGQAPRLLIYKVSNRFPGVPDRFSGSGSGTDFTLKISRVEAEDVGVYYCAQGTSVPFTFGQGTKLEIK", "fold", 1.2],
  ["dBBDu183H P61N / dBBDu072L (antibody, name in Kabat numbering, V domains shown, as m1, one VH change) VH: QVQLVESGGGLVQPGRSLRLSCAASGFTFSNAWMHWVRQAPGKGLEWVAQIKDKGNAYAAYYANSVKGRFTISRDDSKNSIYLQMNSLKTEDTAVYYCHYVHYASASTVLPAFGVDAWGQGTTVTVSS VL: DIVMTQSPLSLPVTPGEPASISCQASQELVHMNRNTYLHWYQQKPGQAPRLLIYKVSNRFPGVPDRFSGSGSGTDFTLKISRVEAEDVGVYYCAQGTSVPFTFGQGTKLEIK", "fold", 1.2]
]}

Sure, the documented fold change of affinity for dBBDu183H P61W / dBBDu072L (antibody, name in Kabat numbering, V domains shown, as m1, one VH change) VH: QVQLVESGGGLVQPGRSLRLSCAASGFTFSNAWMHWVRQAPGKGLEWVAQIKDKGNAYAAYYAWSVKGRFTISRDDSKNSIYLQMNSLKTEDTAVYYCHYVHYASASTVLPAFGVDAWGQGTTVTVSS VL: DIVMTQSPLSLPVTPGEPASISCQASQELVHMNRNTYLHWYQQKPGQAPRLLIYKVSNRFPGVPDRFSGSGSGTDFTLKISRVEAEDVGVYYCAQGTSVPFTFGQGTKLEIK is 0.8

Sure, the documented fold change of affinity for dBBDu183H V63F / dBBDu072L (antibody, name in Kabat numbering, V domains shown, as m1, one VH change) VH: QVQLVESGGGLVQPGRSLRLSCAASGFTFSNAWMHWVRQAPGKGLEWVAQIKDKGNAYAAYYAPSFKGRFTISRDDSKNSIYLQMNSLKTEDTAVYYCHYVHYASASTVLPAFGVDAWGQGTTVTVSS VL: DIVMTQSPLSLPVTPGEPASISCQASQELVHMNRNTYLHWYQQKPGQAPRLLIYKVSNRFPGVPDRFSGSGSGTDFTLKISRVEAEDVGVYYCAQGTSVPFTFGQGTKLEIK is 0.9
